molecular target: Amyloid-beta precursor protein (Homo sapiens); assay: Inhibition of self-mediated aggregation of amyloid beta (1-42) (unknown origin) at 25 uM after 24 hrs by thioflavin T fluorescence-based fluorimetric method
readout: inhibition (%)
Report only the number, with the unit % understood.

Identify the reported inhibition for the following entry. COc1cc(O)c2c(=O)cc(C(=O)NCCCCN(C)Cc3ccccc3OC)oc2c1 47.5

Check the records and state inhibition for COc1cc(O)c2c(=O)cc(C(=O)NCCCCN3CCOc4ccccc4C3)oc2c1 40.9

Let me know recorded inhibition for CCN(CCCNC(=O)c1cc(=O)c2c(O)cccc2o1)Cc1ccccc1OC , thanks. 48.7

Provide one value: measured inhibition of CN(CCCNC(=O)c1cc(=O)c2c(O)cccc2o1)Cc1ccccc1 43.9

Consider the molecule CCN(CCCCNC(=O)c1cc(=O)c2c(O)cc(N(C)C)cc2o1)Cc1ccccc1OC and give its recorded inhibition. 41.1

Output inhibition of CCN(CCCCNC(=O)c1cc(=O)c2c(O)cc(OC)cc2o1)Cc1ccccc1N(C)C 25.6

Specify reported inhibition for the molecule shown: CCN(CCCCNC(=O)c1cc(=O)c2c(O)cccc2o1)Cc1ccccc1OC 59.2

Give recorded inhibition. COc1cc(O)c2c(=O)cc(C(=O)NCCCCN(C)Cc3ccccc3)oc2c1 24.4

Dear colleague, please send me the reported inhibition for C#CCN(CCCCNC(=O)c1cc(=O)c2c(O)cc(OC)cc2o1)Cc1ccccc1OC when you can. 22.4

Recall and state the measured inhibition for CCN(CCCCCCNC(=O)c1cc(=O)c2c(O)cc(OC)cc2o1)Cc1ccccc1 . 28.6
